FYI, the data here is from ChEMBL document CHEMBL3763069.

Each entry below carries its recorded MIC.
System: Staphylococcus aureus
Assay: Antibacterial activity against methicillin-resistant Staphylococcus aureus incubated for 20 hrs by microbroth dilution method
Format: functional
measured attribute: MIC

1) Cc1ccc2[nH]c3c(C)ccc(F)c3c2c1 : 6.25 µg/mL
2) Cc1ccc(F)c2c1[nH]c1ccccc12 : 12.5 µg/mL
3) Cc1ccc2c(c1)[nH]c1c(F)cc(F)c(F)c12 : 6.25 µg/mL
4) CN[C@@H]1[C@H](O[C@H]2[C@H](O[C@H]3[C@H](O)[C@@H](O)[C@H](N=C(N)N)[C@@H](O)[C@@H]3N=C(N)N)O[C@@H](C)[C@]2(O)C=O)O[C@@H](CO)[C@H](O)[C@H]1O : 3.12 µg/mL
5) Cc1ccc2c(c1)[nH]c1cc(F)cc(F)c12 : 3.12 µg/mL
6) Fc1cc(F)c2c(c1)[nH]c1ccccc12 : 12.5 µg/mL
7) Fc1ccc2c(c1)[nH]c1c(F)cc(F)c(F)c12 : 6.25 µg/mL
8) Fc1ccc2[nH]c3c(F)cc(F)c(F)c3c2c1 : 6.25 µg/mL
9) CCc1ccc2[nH]c3c(F)cc(F)c(F)c3c2c1 : 3.12 µg/mL
10) CCc1ccc2[nH]c3cc(F)cc(F)c3c2c1 : 3.12 µg/mL
11) Cc1ccc2[nH]c3c(F)cc(F)c(F)c3c2c1 : 6.25 µg/mL
12) C[C@@H](O)[C@H]1C(=O)N2C(C(=O)O)=C(S[C@@H]3CN[C@H](C(=O)N(C)C)C3)[C@H](C)[C@H]12 : 0.78 µg/mL
13) Fc1cc(F)c2[nH]c3ccccc3c2c1F : 12.5 µg/mL
14) Fc1ccc2c(c1)[nH]c1cc(F)cc(F)c12 : 12.5 µg/mL
